Let's look at some compounds and their measured pIC50.
# experimental system: urokinase enzyme Abbokinase (Homo sapiens, UniProt P00749)
# Construct: purchased Abbott Laboratories, Abbott Park, Ill
# test name: Determination of urokinase inhibition (Abbokinase, chromogenic substrate S-2444)
# Assay type: biochemical
# recorded conditions: IC50, Inhibitory potency against urokinase; substrate S-2444 at 200 μM, enzyme 2-3 nM, pH 7.4, 405 nm
pIC50: −log10 of the molar value.
measured endpoint: pIC50

>>> val("N=C(N)c1ccc2cc(-c3ncc(-c4ccccc4)s3)ccc2c1")
5.59
>>> val("N=C(N)c1ccc2ccc(OCCO)cc2c1")
5.44
>>> val("N=C(N)c1ccc2cc(-c3ncc(-c4ccccc4)o3)ccc2c1")
5.90
>>> val("NC(=NO)c1ccc2cc(C(=O)Nc3ccccc3)cc(Nc3ncccn3)c2c1")
5.05
>>> val("N=C(N)c1ccc2cc(C#Cc3ccccc3)ccc2c1")
5.46
>>> val("CSc1cc(-c2cc(C(=O)Nc3ccccc3)cc3ccc(C(=N)N)cc23)co1")
7.46
>>> val("COc1ccc2ccc(C(=N)N)cc2c1Oc1ncccn1")
6.25
>>> val("[H]/N=C(/N)c1ccc2cc(C=Cc3ccc([C@@H](N)CO)cc3)ccc2c1")
6.08
>>> val("N=C(N)c1ccc2cc(NC(=O)Nc3ccc(CN)cc3)ccc2c1")
6.34
>>> val("CSc1ccccc1-c1ccc2cc(C(=N)N)ccc2c1")
5.47
>>> val("[H]/N=C(/N)c1ccc2cc(C=Cn3ccnc3)ccc2c1")
5.51
>>> val("COc1ccc2ccc(C(=N)N)cc2c1OC")
5.18
>>> val("N=C(N)c1ccc2cc(OCc3ccc(CO)cc3)ccc2c1")
5.30
>>> val("CC(=O)C=Cc1ccc2cc(C(=N)N)ccc2c1")
5.33
>>> val("[H]/N=C(/N)c1ccc2cc(C=Cc3cccs3)ccc2c1")
5.53
>>> val("N=C(N)c1ccc2cc(N)ccc2c1 [Example 73, 6-Aminonaphthalene-2-carboximidamide]")
5.48
>>> val("COc1ccc2ccc(C(=N)N)cc2c1Oc1ccc([N+](=O)[O-])cc1")
5.50
>>> val("CC(C)CC#Cc1ccc2cc(C(=N)N)ccc2c1")
5.53
>>> val("COc1ccc2ccc(C(=N)N)cc2c1-c1cc2ccccc2o1")
6.14
>>> val("N=C(N)c1ccc2cc(C#CCCCc3ccccc3)ccc2c1")
5.34

----------
Listed here are compounds together with their documented log10 of IC50.
# experimental system: urokinase enzyme Abbokinase (Homo sapiens, UniProt P00749)
# Construct: purchased Abbott Laboratories, Abbott Park, Ill
# test name: Determination of urokinase inhibition (Abbokinase, chromogenic substrate S-2444)
# Format: biochemical
# recorded conditions: Inhibitory potency against urokinase; substrate S-2444 at 200 μM, enzyme 2-3 nM, pH 7.4, 405 nm; read-out: IC50
measured endpoint: log10 of IC50 (log10 of the value in nM)

>>> val("N=C(N)c1ccc2cc(/C=C/c3ccc(C(N)=O)cc3)ccc2c1")
3.44
>>> val("CCSC1CC(c2cc(C(=O)Nc3ccccc3)cc3ccc(C(=N)N)cc23)CO1 (stereo not drawn)")
2.09
>>> val("CC(C)(C)OC(=O)NCc1ccc(C#Cc2ccc3cc(C(=N)N)ccc3c2)cc1")
3.09
>>> val("N=C(N)c1ccc2cc(C(=O)Nc3ncc(Br)s3)ccc2c1")
3.31
>>> val("N=C(N)c1ccc2cc(C(=O)Nc3cccc(OCc4ccccc4)c3)ccc2c1")
2.54
>>> val("CC(C)(C)OC(=O)Nc1ccc(NC(=O)Nc2ccc3cc(C(=N)N)ccc3c2)cc1")
2.98
>>> val("[H]/N=C(/N)c1ccc2cc(C=Cc3ccc(CN(C)C)cc3)ccc2c1")
3.37
>>> val("N=C(N)c1ccc2cc(C#Cc3ccccn3)ccc2c1")
3.21
>>> val("N=C(N)c1ccc2cc(C(=O)Nc3ccccc3)cc(C3CCCN3)c2c1 (stereo not drawn)")
3.61
